Reference source: ChEMBL document CHEMBL5620424

# tested_on: Muscarinic acetylcholine receptor M4 (Homo sapiens)
# method_summary: Positive allosteric modulation at Rluc-tagged human M4 mAChR expressed in Flp-In-CHO cells co-expressing eYFP-tagged beta-arrestin 2 assessed as ACh-mediated beta-arrestin 2 recruitment co-operativity (log alpha beta) incubated for 5 mins by luminometry
# Type: cell-based
# settings: filed as positive allosteric modulator
outcome_measure: log(activity)

Sample answers from the record:
                              record_smiles                                 tested_on  observed_value
0  Cc1ccc(-c2cnn(CC3CCCC3)c2)c(-c2cccc(C(=O)N(C)C)c2)n1  Muscarinic acetylcholine receptor M4 (Homo sapiens)            1.06
1  CN1Cc2ccc(-c3nccnc3-c3cnn(CC4CCCC4)c3)cc2C1=O  Muscarinic acetylcholine receptor M4 (Homo sapiens)            0.94
2  CN1Cc2ccc(-c3ncccc3-c3cnn(CC4CCCC4)c3)cc2C1=O  Muscarinic acetylcholine receptor M4 (Homo sapiens)            2.09

P. Cc1ccc(-c2cnn(CC3CCCC3)c2)c(-c2ccccc2)n1
Q. Cc1ccc(-c2cnn(CC3CCCCC3)c2)c(-c2ccc3c(c2)C(=O)N(C)C3)n1
Q: // returns P or Q , whichever has the lower log(activity) Mark your selection by writing its label.
A: Q
(Q: 1.1, P: 1.87)
